MEASUREMENT TARGET: human V1a receptor (Homo sapiens, UniProt P37288)
Sequence (P37288 whole entry): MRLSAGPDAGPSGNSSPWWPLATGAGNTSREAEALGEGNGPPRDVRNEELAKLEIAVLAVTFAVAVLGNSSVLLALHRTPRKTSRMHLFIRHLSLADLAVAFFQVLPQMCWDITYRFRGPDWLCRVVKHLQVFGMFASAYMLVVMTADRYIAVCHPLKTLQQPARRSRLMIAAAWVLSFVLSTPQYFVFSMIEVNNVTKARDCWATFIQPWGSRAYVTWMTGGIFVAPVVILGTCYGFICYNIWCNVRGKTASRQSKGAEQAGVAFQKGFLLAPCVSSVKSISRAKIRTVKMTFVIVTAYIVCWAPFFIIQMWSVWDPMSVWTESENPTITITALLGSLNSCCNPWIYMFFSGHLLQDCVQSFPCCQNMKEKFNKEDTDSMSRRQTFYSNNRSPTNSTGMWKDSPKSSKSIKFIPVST
Each record is given Condition met if its reported Ki is strictly below 2 nM. Records at or above 2 nM are given Condition not met.

For this molecule, is Ki lower than 2 nM? Cc1nc(Cn2cc(C(=O)N3CCC4(CC3)OCc3ccccc34)c3ccc(Cl)cc32)c(C2CC2)o1
Condition not met

For this molecule, is Ki lower than 2 nM? Cc1oc(-c2ccccc2)nc1C(=O)Cn1cc(C(=O)N2CCC3(CC2)OC(=O)c2cc(F)ccc23)c2ccc(Cl)cc21
Condition not met

For this molecule, is Ki lower than 2 nM? Cc1nc(Cn2cc(C(=O)N3CCC4(CC3)OC(=O)c3cc(F)ccc34)c3ccc(Cl)cc32)c(C2CC2)o1
Condition not met

For this molecule, is Ki lower than 2 nM? Cn1cncc1Cn1cc(C(=O)N2CCC3(CC2)OC(=O)c2cc(F)ccc23)c2ccc(Cl)cc21
Condition not met

For this molecule, is Ki lower than 2 nM? COCC1(Cn2cc(C(=O)N3CCC4(CC3)OC(=O)c3cc(F)ccc34)c3ccc(Cl)cc32)CC1
Condition not met

For this molecule, is Ki lower than 2 nM? CN1CCC[C@@H]1Cn1cc(C(=O)N2CCC3(CC2)OCc2ccccc23)c2ccc(Cl)cc21
Condition met

For this molecule, is Ki lower than 2 nM? O=C(Cn1cc(C(=O)N2CCC3(CC2)OC(=O)c2cc(F)ccc23)c2ccc(Cl)cc21)c1ccccn1
Condition met

###

MEASUREMENT TARGET: UniProt P37288
Structures can show the parent of a compound that is named as a salt.
Each record is given Y if its reported Ki is strictly below 3 nM. Records at or above 3 nM are given N.

O=C1OC2(CCN(C(=O)c3cn(Cc4cccc(F)c4)c4cc(Cl)ccc34)CC2)c2ccccc21	Y
CN(C)C(=O)Cn1cc(C(=O)N2CCC3(CC2)OCc2ccccc23)c2ccc(Cl)cc21	Y
CC(C)(C)OC(=O)N1CCOC(Cn2cc(C(=O)N3CCC4(CC3)OC(=O)c3cc(F)ccc34)c3ccc(Cl)cc32)C1 (stereo not drawn)	N
O=C1OC2(CCN(C(=O)c3cn(CCC4CCOCC4)c4cc(Cl)ccc34)CC2)c2ccc(F)cc21 [Example 195, hydrochloride]	Y
NC(=O)Cn1cc(C(=O)N2CCC3(CC2)OC(=O)c2cc(F)ccc23)c2ccc(Cl)cc21	N
COc1ccc(Cn2c(C)c(C(=O)N3CCC4(CC3)OCc3ccccc34)c3ccccc32)cc1	N
O=C1OC2(CCN(C(=O)c3cn(CC4CNCCO4)c4cc(Cl)ccc34)CC2)c2ccccc21 (stereo not drawn) [Example 198, hydrochloride]	N
Cc1nc(Cn2cc(C(=O)N3CCC4(CC3)OC(=O)c3cc(F)ccc34)c3ccc(Cl)cc32)c(C)o1	N
N#CCCn1cc(C(=O)N2CCC3(CC2)OC(=O)c2ccccc23)c2ccc(Cl)cc21	Y
CCC(C)C(=O)c1[nH]c2ccccc2c1C(=O)N1CCC2(CC1)OCc1ccccc12 (stereo not drawn)	Y

For this compound, is Ki lower than 3 nM? O=C1OC2(CCN(C(=O)c3cn(Cc4cc(F)cc(F)c4)c4ccccc34)CC2)c2ccccc21
N

For this compound, is Ki lower than 3 nM? O=C(c1cn(C(=O)c2cc(F)cc(F)c2)c2cc(Cl)ccc12)N1CCC2(CC1)OCc1ccccc12
N

For this compound, is Ki lower than 3 nM? Cc1noc(C)c1Cn1cc(C(=O)N2CCC3(CC2)OCc2ccccc23)c2ccc(Cl)cc21
Y

For this compound, is Ki lower than 3 nM? O=C1OC2(CCN(C(=O)c3cn(CC4CNCCO4)c4cc(Cl)ccc34)CC2)c2ccc(F)cc21 (stereo not drawn) [Example 200, dihydrochloride]
N

For this compound, is Ki lower than 3 nM? Cc1[nH]c2ccccc2c1C(=O)N1CCC2(CC1)OCc1ccccc12
N

###

pKi data for human V1a receptor (Homo sapiens) follow.
As a rule, pKi stands for the negative log10 of the concentration, concentration in M.

O=C(c1cn(CCCN2CCOCC2)c2cc(Cl)ccc12)N1CCC2(CC1)OCc1ccccc12	8.51
Cc1cc(Cn2cc(C(=O)N3CCC4(CC3)OCc3ccccc34)c3ccc(Cl)cc32)nn1C	8.70

Item N#CCn1cc(C(=O)N2CCC3(CC2)OCc2ccccc23)c2ccc(Cl)cc21 was tested on human V1a receptor (Homo sapiens); the reported pKi is 8.77

Item Cc1cc(C)cc(Cn2c(C)c(C(=O)N3CCC4(CC3)OCc3ccccc34)c3ccccc32)c1 was tested on human V1a receptor (Homo sapiens); the reported pKi is 8.62

Item O=C(c1c[nH]c2cc(Cl)ccc12)N1CCC2(CC1)C(=O)Nc1ccc(Br)cc12 was tested on human V1a receptor (Homo sapiens); the reported pKi is 7.17

###

MEASUREMENT TARGET: human V1a receptor (Homo sapiens)
As shown below, each of these compounds has a reported pKi value.
As a rule, pKi stands for the negative log10 of the concentration, concentration in M.

Answered examples (3):
CC(C)(C)OC(=O)Cn1cc(C(=O)N2CCC3(CC2)OCc2ccccc23)c2ccc(Cl)cc21	9.00
CCN(CC)C(=O)Cn1cc(C(=O)N2CCC3(CC2)OCc2ccccc23)c2ccc(Cl)cc21	8.96
O=C1OC2(CCN(C(=O)c3cn(-c4cccc(F)c4)c4cc(Cl)ccc34)CC2)c2ccccc21	8.30

Let's switch to this compound now.
Sample O=C(c1cn(CC2CCOCC2)c2cc(Cl)ccc12)N1CCC2(CC1)OCc1ccccc12 ; pKi observed: 8.77

###

MEASUREMENT TARGET: UniProtKB P37288
Each record is given True if its reported Ki is strictly below 2 nM. Records at or above 2 nM are given False.

A selection of reference data follows.
CNC(=O)Cn1cc(C(=O)N2CCC3(CC2)NC(=O)c2ccccc23)c2ccc(Cl)cc21	False
Cc1c(C(=O)N2CCC3(CC2)OC(=O)c2ccccc23)c2ccccc2n1Cc1ccccc1	False
CN(C)C(=O)c1[nH]c2cc(Cl)ccc2c1C(=O)N1CCC2(CC1)OC(=O)c1cc(F)ccc12	False
Cc1cc2c(C(=O)N3CCC4(CC3)OC(=O)c3ccccc34)cn(CC(=O)N(C)C)c2cc1Cl	False
Cc1cc(Cn2cc(C(=O)N3CCC4(CC3)OCc3ccccc34)c3ccc(Cl)cc32)on1	False
Cc1c(C(=O)N2CCC3(CC2)OCc2ccccc23)c2ccccc2n1Cc1ccccc1	True

For this compound, is Ki lower than 2 nM? O=C1OC2(CCN(C(=O)c3cn(Cc4ccccn4)c4cc(Cl)ccc34)CC2)c2ccc(F)cc21
False

For this compound, is Ki lower than 2 nM? CN(C)CCn1cc(C(=O)N2CCC3(CC2)OCc2ccccc23)c2ccccc21
False

For this compound, is Ki lower than 2 nM? O=C1OC2(CCN(C(=O)c3c4n(c5cc(Cl)ccc35)CCNC4=O)CC2)c2ccc(F)cc21
False

For this compound, is Ki lower than 2 nM? O=C1OC2(CCN(C(=O)c3cn(Cc4ccncc4)c4cc(Cl)ccc34)CC2)c2ccccc21
False

For this compound, is Ki lower than 2 nM? O=C1OC2(CCN(C(=O)c3cn(C(=O)c4cc(F)cc(F)c4)c4cc(Cl)ccc34)CC2)c2ccccc21
False

For this compound, is Ki lower than 2 nM? Cc1c(C(=O)N2CCC3(CC2)OC(=O)c2cccc(Cl)c23)c2ccccc2n1Cc1ccccc1
False

###

pKi data for human V1a receptor (Homo sapiens) follow.
As a rule, pKi stands for the negative log10 of the concentration, concentration in M.

Answered examples (3):
CNCCn1cc(C(=O)N2CCC3(CC2)OCc2ccccc23)c2ccc(Cl)cc21 [Example 254]	8.72
O=C(Cn1cc(C(=O)N2CCC3(CC2)OCc2ccccc23)c2ccc(Cl)cc21)N1CCCCC1 [Example 204]	8.96
Cc1ncc(Cn2cc(C(=O)N3CCC4(CC3)OC(=O)c3cc(F)ccc34)c3ccc(Cl)cc32)c(N)n1 [Example 163]	7.82

Item O=C1OC2(CCN(C(=O)c3cn(Cc4cc(F)cc(F)c4)c4cc(Cl)ccc34)CC2)c2ccccc21 [Example 133] was tested on human V1a receptor (Homo sapiens); the reported pKi is 9.05

Item O=C(c1cn(Cc2ccccn2)c2cc(Cl)ccc12)N1CCC2(CC1)OCc1ccccc12 [Example 231] was tested on human V1a receptor (Homo sapiens); the reported pKi is 8.80

###

Counter-ions that a name gives are not always drawn.
pKi data for human V1a receptor (Homo sapiens, UniProt P37288) follow.
As a rule, pKi stands for the negative log10 of the concentration, concentration in M.

Answered examples (2):
Cc1c(C(=O)N2C[C@H](C)C3(OC(=O)c4ccccc43)[C@@H](C)C2)c2ccccc2n1Cc1ccccc1 (racemic)	7.83
O=C(c1cn(Cc2ccccc2)c2ccccc12)N1CCC2(C=Cc3ccccc32)CC1	8.00

Sample O=C(c1cn(CC2CN(Cc3ccccc3)CCO2)c2cc(Cl)ccc12)N1CCC2(CC1)OCc1ccccc12 (stereo not drawn) ; pKi observed: 8.30

Sample CNC(=O)Cn1cc(C(=O)N2CCC3(CC2)OCc2ccccc23)c2ccc(Cl)cc21 ; pKi observed: 8.85

Sample O=C(Cn1cc(C(=O)N2CCC3(CC2)OC(=O)c2ccccc23)c2ccc(Cl)cc21)c1ccccc1F ; pKi observed: 9.00

Sample CN(C)C(=O)Cn1cc(C(=O)N2CCC3(CC2)CNc2ccccc23)c2ccc(Cl)cc21 ; pKi observed: 8.47

Sample Cc1cc(Cn2cc(C(=O)N3CCC4(CC3)OC(=O)c3cc(F)ccc34)c3ccc(Cl)cc32)no1 ; pKi observed: 8.51

Sample CNCCNC(=O)c1[nH]c2cc(Cl)ccc2c1C(=O)N1CCC2(CC1)OC(=O)c1cc(F)ccc12 [Example 194, hydrochloride] ; pKi observed: 7.82

Sample N#CCC1(Cn2cc(C(=O)N3CCC4(CC3)OCc3ccccc34)c3ccc(Cl)cc32)CC1 ; pKi observed: 8.77

src = patent US7332501B2
